Mark TRUE for reported logP of 2 or greater; mark FALSE for anything smaller.

SMILES CODE	CATEGORY LABEL
CCCNC(=O)c1cccs1	FALSE
CCNC(=O)c1ccsc1	FALSE
CNC(=O)c1ccsc1	FALSE
CNC(=O)c1cccs1	FALSE
Clc1ccsc1	TRUE
CCOC(=O)c1ccsc1	TRUE
CCNC(=O)c1cccs1	FALSE
COc1cccs1	TRUE
COC(=O)c1cccs1	FALSE
CCCOC(=O)c1ccsc1	TRUE
CCCNC(=O)c1ccsc1	FALSE
CCCOC(=O)c1cccs1	TRUE
